# credit: ChEMBL document CHEMBL3616437

system: Cryptococcus gattii species complex; test: Antifungal activity against Cryptococcus gattii L28/02 after 48 to 72 hrs by broth microdilution method; format: functional, Cryptococcus bacillisporus
property_label: MIC
Reply with the number, then its unit.

Reference set (5 entries):
COc1ccc(-c2csc(N/N=C(\C)CCO)n2)cc1: 1.4 µM
C[C@@H]1[C@H](O)[C@@H](C)/C=C/C=C/C=C/C=C/C=C/C=C/C=C/[C@H](O[C@@H]2O[C@H](C)[C@@H](O)[C@H](N)[C@@H]2O)C[C@@H]2O[C@](O)(C[C@@H](O)C[C@@H](O)[C@H](O)CC[C@@H](O)C[C@@H](O)CC(=O)O[C@H]1C)C[C@H](O)[C@H]2C(=O)O: 0.08 µM
COc1ccc(-c2csc(N/N=C/C3CCCCC3)n2)cc1: 4.2 µM
C(=N\Nc1nc(-c2ccccc2)cs1)/C1CCCCC1: 1.9 µM
c1ccc(-c2csc(NN=C3CCCC3)n2)cc1: 2.7 µM

// next entry
What does the data say about its MIC? Entry: OC(Cn1cncn1)(Cn1cncn1)c1ccc(F)cc1F
26 µM

###

test system: Cryptococcus neoformans; test: Antifungal activity against Cryptococcus neoformans 27JF after 48 to 72 hrs by broth microdilution method; format: functional
property_label: log10 of MIC (log10 of the value in µM)
Hey, these are logged values: log10 of MIC, µM being the unit before logging.

COc1ccc(-c2csc(N/N=C(\C)CCO)n2)cc1: 0.08
C[C@@H]1[C@H](O)[C@@H](C)/C=C/C=C/C=C/C=C/C=C/C=C/C=C/[C@H](O[C@@H]2O[C@H](C)[C@@H](O)[C@H](N)[C@@H]2O)C[C@@H]2O[C@](O)(C[C@@H](O)C[C@@H](O)[C@H](O)CC[C@@H](O)C[C@@H](O)CC(=O)O[C@H]1C)C[C@H](O)[C@H]2C(=O)O [AMPHOTERICIN B]: -1.15
OC(Cn1cncn1)(Cn1cncn1)c1ccc(F)cc1F [FLUCONAZOLE]: 1.02
COc1ccc(-c2csc(N/N=C/C3CCCCC3)n2)cc1: 0.54
C(=N\Nc1nc(-c2ccccc2)cs1)/C1CCCCC1: 0.38

// next entry
Can you look up log10 of MIC on Cryptococcus neoformans for c1ccc(-c2csc(NN=C3CCCC3)n2)cc1 ?
0.51

###

system: Cryptococcus gattii species complex; experiment: Antifungal activity against Cryptococcus gattii L28/02 after 48 to 72 hrs by broth microdilution method; format: functional, Cryptococcus bacillisporus
property_label: MFC

Reference set (5 entries):
C(=N\Nc1nc(-c2ccccc2)cs1)/C1CCCCC1: 7.8 µM
C[C@@H]1[C@H](O)[C@@H](C)/C=C/C=C/C=C/C=C/C=C/C=C/C=C/[C@H](O[C@@H]2O[C@H](C)[C@@H](O)[C@H](N)[C@@H]2O)C[C@@H]2O[C@](O)(C[C@@H](O)C[C@@H](O)[C@H](O)CC[C@@H](O)C[C@@H](O)CC(=O)O[C@H]1C)C[C@H](O)[C@H]2C(=O)O: 0.1 µM
OC(Cn1cncn1)(Cn1cncn1)c1ccc(F)cc1F: > 62.5 µM
c1ccc(-c2csc(NN=C3CCCC3)n2)cc1: 3.9 µM
COc1ccc(-c2csc(N/N=C/C3CCCCC3)n2)cc1: 7.8 µM

// next entry
What does the data say about its MFC? Entry: COc1ccc(-c2csc(N/N=C(\C)CCO)n2)cc1
3.9 µM
